Data origin, for the record: the supplement of paper PMC4466140

# target-entity: ScLsb3
# test-protocol: SPOT peptide array binding signal intensity (averaged, normalized) (arbitrary units (background-subtracted, floor 0; scale differs between SH3 domains)); higher = stronger binding of the SH3 domain to the peptide
reported-property: SPOT peptide array binding signal intensity

| binder | value-observed |
| --- | --- |
| YRRKSIPFAPHQITA | 20 |
| LLGRKRPVMERVVDI | 140 |
| LRIKRKPVQTFFEFI | 156 |
| NRARYLPQNPDIIAG | 58 |
| EQEEIAPSLPSRNSI | 4150 |
| KRRTSLFPWLHKPGI | 54 |
| RRRDFGAPANKRPRR | 810 |
| SAPDIPPRSPNRNAH | 5380 |
| FFRRSELYLPNSSKA | 34.5 |
| KRKRRLPVSEDTNTK | 562 |
| VPVAPPPPPASLGQS | ≤ 0 |
| VLRFLGFPLPIFEKG | ≤ 0 |
| VQQDSLPKLPFRSWG | 5130 |
| AATTSTPPLPRRRAT | 6300 |
| KDKKTKPTPPPKPSH | 328 |
| AERNYAPRLPRRETS | 6160 |
| SSTPTTPERPKRKSG | 5780 |
| NAGIRPKFILALNDE | ≤ 0 |
| VNIPSPSSSPPPIPK | ≤ 0 |
